assay: Half life in TCN buffer at pH 7.5; format: physicochemical
Kindly supply the reported half-life values for the records listed here.
Answers are plain numbers, in h.

Would you please look over these solved cases?
Record COc1ccc(S(=O)(=O)N(CC(=O)O)C(=O)[C@H](CC(C)C)NC(=O)[C@@H]2CCCN2C(=O)OCc2ccccc2)cc1 . Reported half-life: 77

Record COc1ccc(S(=O)(=O)N(CC(=O)N[C@@H](CC(C)C)C(=O)N[C@@H](CCC(=O)O)C(=O)N[C@@H](CCC(=O)O)C(=O)N[C@@H](C)C(N)=O)C(=O)[C@H](CC(C)C)NC(=O)[C@@H]2CCCN2C(=O)OCc2ccccc2)cc1 . Reported half-life: 28

Shift focus to the following entry.
Record COc1ccc(S(=O)(=O)N(CC(=O)O)C(=O)CNC(=O)[C@H](CC(C)C)NC(=O)[C@@H]2CCCN2C(=O)OCc2ccccc2)cc1 . Reported half-life: 27

Origin of values: ChEMBL document CHEMBL2203269
